experimental-protocol: soluble on expression in E. coli; label from the status in PepcDB or PDB records
quantity: soluble on expression in E. coli

{"sequence-code": "MKIGIIGAGFVARAIAKLALQNGHQVMLSNSRDPQSLFSLRPMIGCDIGTATQAALFGDIIVIAVPFTAIDKLPEQALQGKSVIDAVNYYTERDGKVAALDTRSTTTSELLAGYLPGAKITKAFNAITMTQLERDGLPAGSAHRRALPLAGDHEQEKTIVAELYDAFGFDVVDAGKLSEGWRFERNMPSYCVRMTKAELTTALALSSRLEHHHHHH", "quantity": "soluble on expression in E. coli", "observed-measurement": "soluble"}
{"sequence-code": "SDIELIHCGADLVERMMNDIRQAASSVHMMFFIMKNDEVSHNMYTLLKTKAQAGVSVYLLLDWAGCRAIKKTALQTMKNAGVHVHVMNRPRFPFFFFHMQKRNHRKITVIDGKIGYIGGFNIAEEYLGKKAKFGNWEDYHLRMIGEGVHDLQTLFASDLKRNTGIELGSDVWPKLQQGTISHKIYATDGYSLENIYLANIAQAKNRLTVCTPYYIPSKPLQEALINARKNGVSVRIIVPMKSDHPLVREAAFTYYSELLDAGCLIYRYYQGFYHVKALIIDDHLSIIGTANFDKRSLFLNEEVNVEIDDEAFTSEVYATIEEDMKKSELLTMEDFSKRTFRQRPAEWLGR", "quantity": "soluble on expression in E. coli", "observed-measurement": "not soluble"}
{"sequence-code": "MGSDKIHHHHHHMAILQLGMAFDADAFSASVIGIAADVGSHDSGVHRHGKGQLLYAPQGCITFAWEDAIGILPPTKAVWIPPHTPHRAVMTNVVAYRSLYFDCSRIVAPASVTMVDVNPLLKALIDKMAFWPWDTPEASMTHSCALFWEEFYAARCHSFRLTIPVDRRFHGFRQQLFRPEFLPPDIDSLAATIGASTKTVTRLFKRDTGMSYQEWRQQWRLLKAIELLSGALPVSEVGFRLGFSSDSAFIAFFRKQTGKTPRHFMQG", "quantity": "soluble on expression in E. coli", "observed-measurement": "not soluble"}
{"sequence-code": "MAAPDIKTIVNGINIKQSFAIQNQIRDGGDGELAKPRYQATVVWDSGYHTTSNVTDGQIIIGDEPVHYGGEGMGITPQDLLLTAVGHCLAASYIGGLSAAHINVESLHVHVSGRVNFRAAFAVEPGNPGFEDISVIVEIQTDAPQEQVTALLEKLKHMAPIPDTIMRPVPVNIEIRHQLK", "quantity": "soluble on expression in E. coli", "observed-measurement": "not soluble"}
{"sequence-code": "MSRRVATITLNPAYDLVGFCPEIERGEVNLVKTTGLHAAGKGINVAKVLKDLGIDVTVGGFLGKDNQDGFQQLFSELGIANRFQVVQGRTRINVKLTEKDGEVTDFNFSGFDVTPADWERFVNDSLSWLGQFDMVCVSGSLPAGVSPEAFTDWMTRLRSQCPCIIFDSSREALVAGLKAAPWLVKPNRRELEIWAGRKLPEMKDVIDAAHALREQGIAHVVISLGAEGALWVNASGEWIAKPPAVDVVSTVGAGDSMVGGLIYGLLMRESSEHTLRLATAVAALAVSQSNVGITDRPQLAAMMARVDLQPFN", "quantity": "soluble on expression in E. coli", "observed-measurement": "not soluble"}
{"sequence-code": "MGSDKIHHHHHHMFRLQFRLFPPLRTAMHILLTALLKCLSLLPLSCLHTLGNRLGHLAFYLLKEDRARIVANMRQAGMNPDPKTVKAVFAETAKGGLELAPAFFRKPEDIETMFKAVHGWEHVQQALDKHEGLLFITPHIGSYDLGGRYISQQLPFPLTAMYKPPKIKAIDKIMQAGRVRGKGKTAPTSIQGVKQIIKALRSGEATIVLPDHVPSPQEGGEGVWVDFFGKPAYTMTLAAKLAHVKGVKTLFFCCERLPGGQGFDLHIRPVQGELNGDKAHDAAVFNRNAEYWIRRFPTQYLFMYNRYKMP", "quantity": "soluble on expression in E. coli", "observed-measurement": "not soluble"}
{"sequence-code": "DDEITREPRKVVLHRGSTGLGFNIVGGEDGEGIFISFILAGGPADLSGELRKGDRIISVNSVDLRAASHEQAAAALKNAGQAVTIVAQYRPEEYSRQHA", "quantity": "soluble on expression in E. coli", "observed-measurement": "soluble"}
{"sequence-code": "MPDRLQLLEERLVVNKDRFKAGSVQIGKRIETRQETVSVPLQREEVVIERHAVTDGRAVEGAVLGEGHQTMSVDLEAERANISKQAYVTEEVSVGKRAVTETQQVTETVGREVLDVNQTGDVRLEHHHHHH", "quantity": "soluble on expression in E. coli", "observed-measurement": "not soluble"}
{"sequence-code": "MGSDKIHHHHHHMSRILITCAITGSIHTPSMSPYLPVTADEITQQAVDAADAGAAILHLHARDPETGRPSAEIGHFMGFLPRIKQSCEAVLNLSTGGSAVMTLDQRLAAPKQAAPEMCSLNMGTMNFALYPAADRISDWKHDWEEPFLRGSDDLVFKNTPRDMALILGEMGTKRGARFEFEVYDVGHLYMLRHFVDRGLVQGPLFIQFVFGVLGGIGPDPENLMHMKTVADKLFGQDYLFSVLAAGRHQIPLVTMAAAMGGHVRVGLEDSLMISRGVLARSNAEQVRKIRRIVEDLGREVASPGEARAMLGLKGADRTAF", "quantity": "soluble on expression in E. coli", "observed-measurement": "not soluble"}
{"sequence-code": "VFGYVTEDGDTALHLAVIHQHEPFLDFLLGFSAGHEYLDLQNDLGQTALHLAAILGEASTVEKLYAAGAGVLVAERGGHTALHLACRVRAHTCACVLLQPRPSHPRDASDTYLTQSQDCTPDTSHAPAAVDSQPNPENEEEPRDEDWRLQLEAENYDGHTPLHVAVIHKDAEMVRLLRDAGADLNKPEPTCGRTPLHLAVEAQAASVLELLLKAGADPTARMYGGRTPLGSALLRPNPILARLLRAHGAPEPEDGGDKLSPCEEEGEDEDSDNRDEGDEYDD", "quantity": "soluble on expression in E. coli", "observed-measurement": "soluble"}
{"sequence-code": "MGSDKIHHHHHHMKGIDVSSYQGTIAWGKVKWAGVQFAILKIIRKDLNPDKTFEQNWQGCTEAGMPIQGVYNYSYATTTEKAKTDAKRVIEVLAGRKTFVWLDVEDRCQQGLGQTLIDIINTYQSEIKTAGLEFGVYTGLSFYNTYILPYANQINCPFWIARYPSTKGMTIGDDPNDAKKPAIAHSLYGWQYTSAFTCSGLNNSTDANLLYVELGTKDTTAASQPVSAPVKPNNESWKGDIDYYLESEEVRKWQHAMNVGFDLKGADALKEDGKFGADSQAFAKSHNLWNGQKHYCPTAIKWLRRTLHDVYSFTKLDTDYKEWSDYLSKCVMVFQKNRGLTQDARVGLLTTYRLLKG", "quantity": "soluble on expression in E. coli", "observed-measurement": "not soluble"}
